System: SKOV3
assay.text: Confirmatory qHTS for gynecologic anti-cancer compounds from libraries of approved drugs and bioactive compounds; note: nearly all actives have a fitted effect of over 55% in size
run.conditions: gynecologic cancer cell panel viability, ATPlite luminescence, 48 h; series mostly up to 57.6 µM
Results filed as inconclusive are left out. Calls of active or inactive are those of the source. Calls come from the whole dose curve; as a rule, active = well fitted cell-killing curve with a large enough effect; inconclusive = small, poorly fitted or top-dose-only effect, or effect the other way; inactive = no such curve, though single readings can be large or run the other way.
Thanks in advance; please answer with one of these: true for active, false for inactive

Consider the worked cases shown below.
compound: COC(C(=O)N1Cc2[nH]nc(NC(=O)c3ccc(N4CCN(C)CC4)cc3)c2C1)c1ccccc1 (centres undefined)
category: false
//
compound: C=CC(=O)Nc1cccc(Oc2nc(Nc3ccc(N4CCN(C)CC4)cc3)ncc2Cl)c1
category: true
//
compound: FC(F)(F)c1ccc(/C=C/c2nc(COc3ccc(CCCCn4ccnn4)cc3)co2)cc1
category: false

In: Hey, what did the test say about CC(C)Nc1cc(-c2c[nH]c(C(=O)N[C@H](CO)c3cccc(Cl)c3)c2)c(Cl)cn1 ?
Out: false

In: Assay outcome for S=c1nc[nH]c2nc[nH]c12 : what was it?
Out: true

In: Just curious, what result did O=C(Nc1cn[nH]c1-c1nc2ccc(CN3CCOCC3)cc2[nH]1)NC1CC1 get here?
Out: true

In: Write down the call the test reported for this compound. Item: Cc1nc(Nc2ncc(C(=O)Nc3c(C)cccc3Cl)s2)cc(N2CCN(CCO)CC2)n1
Out: true

In: What did this assay record as the result for NC(=O)Nc1cc(-c2cccc(F)c2)sc1C(=O)NC1CCCNC1 (centres undefined) ?
Out: true

In: What call does the record list for C[C@@]1(C(=O)Nc2ccc(F)nc2)CCCN1c1nc(Nc2cc(C3CC3)[nH]n2)c2cccn2n1 ?
Out: true

In: // param item: Cc1cc(C(C)Nc2ccccc2C(=O)O)c2nc(N3CCOCC3)cc(=O)n2c1 (centres undefined) ; yields the recorded call
Out: true

In: Hi, sorry to bother you, what did the test record for CCc1c2c(nc3ccc(O)cc13)-c1cc3c(c(=O)n1C2)COC(=O)[C@]3(O)CC ?
Out: true

###

Test system: SKOV3
assay.text: Confirmatory qHTS for gynecologic anti-cancer compounds from libraries of approved drugs and bioactive compounds; note: nearly all actives have a fitted effect of over 55% in size; note: potency is the fitted concentration of half-maximal effect
run.conditions: gynecologic cancer cell panel viability, ATPlite luminescence, 48 h; series mostly up to 57.6 µM
Records with an inconclusive call do not appear. Activity calls are given as the source filed them. Calls follow the shape of the dose curve; as a rule, active = well fitted cell-killing curve with a large enough effect; inconclusive = small, poorly fitted or top-dose-only effect, or effect the other way; inactive = no such curve, though single readings can be large or run the other way.
readout.label: Potency

compound: Cc1cncc2cccc(S(=O)(=O)N3CCCN(C(=O)CN)C[C@@H]3C)c12
Potency: inactive

compound: Cc1ccc(C(=O)Nc2cccc(C(F)(F)F)c2)cc1-c1ccc2nc(NCCN3CCOCC3)ncc2c1
Potency: 12.2 µM (active)

compound: Cc1ccc(C(=O)Nc2ccc(CN3CCN(C)CC3)c(C(F)(F)F)c2)cc1C#Cc1cnc2cccnn12
Potency: 12.2 µM (active)

compound: COc1cc2c(cc1-c1c(C)noc1C)ncc1[nH]c(=O)n(C(C)c3ccccn3)c12 (stereo not given)
Potency: inactive

compound: NC(=O)c1cnc(-c2ccc(C3(N)CCC3)cc2)c(-c2ccccc2)c1
Potency: 9.68 µM (active)

Sure, the documented Potency for CCC(=O)N1CCN(c2ccc(-n3c(=O)ccc4cnc5ccc(-c6cnc7ccccc7c6)cc5c43)cc2C(F)(F)F)CC1 is 0.0044 µM (active)

Input CN(C)C/C=C/C(=O)Nc1cc2c(Nc3ccc(F)c(Cl)c3)ncnc2cc1OC1CCOC1 (stereo not given) . Output Potency: inactive

Per the records, this compound ( CC(Oc1ccc2[nH]nc(/C=C/c3cnn(CCO)c3)c2c1)c1c(Cl)cncc1Cl (stereo not given) ) has Potency equal to 3.06 µM (active)

Recorded result, COc1cc(Nc2ncc(F)c(Nc3ccc4c(n3)N(COP(=O)(O)O)C(=O)C(C)(C)O4)n2)cc(OC)c1OC , Potency: 5.44 µM (active)

Lab book: Potency of CCN(CC)CCNC(=O)c1c(C)[nH]c(/C=C2\C(=O)Nc3ccc(F)cc32)c1C noted as 15.8 µM (active)

###

Tested on: SKOV3
assay.text: Confirmatory qHTS for gynecologic anti-cancer compounds from libraries of approved drugs and bioactive compounds; note: nearly all actives have a fitted effect of over 55% in size
run.conditions: gynecologic cancer cell panel viability, ATPlite luminescence, 48 h; series mostly up to 57.6 µM
Inconclusive results are not listed. Activity calls are given as the source filed them. Calls come from the whole dose curve; as a rule, active = well fitted cell-killing curve with a large enough effect; inconclusive = small, poorly fitted or top-dose-only effect, or effect the other way; inactive = no such curve, though single readings can be large or run the other way.
Bench note: report the call from yes (1) for active, no (0) for inactive

molecule: NC(=O)c1ccc2nc(-c3ccc(Oc4ccc(Cl)cc4)cc3)[nH]c2c1
category: no (0)

In: Hello, I am checking results. What call was entered for CCN(CC)CCCC(C)Nc1ccnc2cc(Cl)ccc12 (centres undefined) ?
Out: no (0)

In: Hi team, can someone confirm the assay call for Nc1nc(Cl)nc2c1ncn2C1OC(CO)C(O)C1F (centres undefined) ?
Out: yes (1)

In: Which outcome did this test record for the molecule COc1cc2c(c(OC)c1OC)-c1ccc(OC)c(=O)cc1[C@@H](NC(C)=O)CC2 ?
Out: no (0)

###

System: SKOV3
assay.text: Confirmatory qHTS for gynecologic anti-cancer compounds from libraries of approved drugs and bioactive compounds; note: nearly all actives have a fitted effect of over 55% in size
run.conditions: gynecologic cancer cell panel viability, ATPlite luminescence, 48 h; series mostly up to 57.6 µM
Results filed as inconclusive are left out. Active and inactive are the calls of the source. The call rests on the fitted dose curve; in most records, active means well fitted cell-killing curve with a large enough effect; inconclusive means small, poorly fitted or top-dose-only effect, or effect the other way; inactive means no such curve, though single readings can be large or run the other way.
Returns: one label drawn from active, inactive

mol: C[C@]12CCC(=O)C=C1[C@@H]1C[C@@H]1[C@H]1[C@@H]3[C@@H]4C[C@@H]4[C@@]4(CCC(=O)O4)[C@@]3(C)CC[C@@H]12
test.system: SKOV3
category: inactive
--
mol: COc1cccc2c1C(=O)c1c(O)c3c(c(O)c1C2=O)C[C@@](O)(C(=O)CO)C[C@@H]3O[C@H]1C[C@H](N)[C@H](O)[C@H](C)O1
test.system: SKOV3
category: active
--
mol: CNC(=O)c1ccccc1Nc1nc(Nc2ccc(N3CCOCC3)cc2OC)ncc1Cl
test.system: SKOV3
category: active

In: Status in this test for COc1ccc2cc3[n+](cc2c1OC)CCc1cc2c(cc1-3)OCO2 ?
Out: inactive

In: Each compound tested received a call. Report the one for CCOc1ccc(Nc2nc(-c3c(C)nc4ccccn34)cs2)cc1 .
Out: inactive

In: Given CCS(=O)(=O)N1CCN(c2ccc(Nc3ncc(C(N)=O)c(NC4CC4)n3)cc2)CC1 , state the outcome it received in this test.
Out: active

In: Dear all, I need the recorded test outcome for c1cc(N[C@@H]2CCNC2)nc(-c2cnc3ccc(-c4cn[nH]c4)cn23)c1 , thank you.
Out: inactive

In: What did this assay record as the result for O=C(c1ccc(F)c(F)c1Nc1ccc(I)cc1F)N1CC(O)([C@@H]2CCCCN2)C1 ?
Out: active
